Entry source: PubChem BioAssay AID1851

tested-on: Cytochrome P450 2D6 (Homo sapiens)
method-description: Cytochrome panel assay with activity outcomes
measurement-setup: recombinant CYP, pro-luciferin dealkylation, luminescence, p450-cyp2d6; series mostly up to 57.1 µM
In all, about 16,000 compounds went through this assay and about 2,600 (16%) were called active. About 20% were inconclusive and are not listed. Calls follow the shape of the dose curve; as a rule, active = well fitted curve in the direction sought with a large enough effect; inconclusive = small, poorly fitted or top-dose-only effect, or effect the other way; inactive = no such curve, though single readings can be large or run the other way. The list is a sample of the results.
Reply using exactly one outcome from active, inactive

Data request: Any idea what this test logged for CCOC(=O)C1(S(=O)(=O)c2ccc(Cl)cc2)CCN(Cc2ccc(Cl)cc2)CC1 ?
Data returned: active

Data request: Fill in: this test's call for O=C(c1ccco1)N1CCN(C(=O)C2(S(=O)(=O)c3ccc(Cl)cc3)CC2)CC1 is ___
Data returned: inactive

Data request: Fill in: this test's call for CCOC(=O)N1CCN(S(=O)(=O)Cc2ccccc2)CC1 is ___
Data returned: inactive

Data request: In this assay, the call recorded for CCOC(=O)N1CCN(C(=O)C(C)SCc2ccccc2)CC1 (stereo unspecified) was what?
Data returned: inactive

Data request: Assay result, entry CCc1cc2c(=O)n(-c3ccccc3)c(=S)[nH]c2s1 — outcome?
Data returned: inactive

Data request: What is the recorded call for this compound in the test? CCOC(=O)N1CCN(C(=O)CSCc2ccc(Cl)cc2)CC1
Data returned: inactive
